test: melting temperature; fluorescence melt of hairpins on a sequencing array, two-state fit, raised by 9.35 °C to match UV melts; settings: sodium 0.088 M
Measured Tm values are reported for all entries that follow.
Lab book: enter the figure in °C, no units written.

Before answering, review these 4 worked examples.
| seq_string | value |
| --- | --- |
| GGGTCCCGAAAGGGTCCC (((.(((....))).))) | 64.9 |
| GTACAAGGAAACTTGCAC ((.((((....)))).)) | 34.1 |
| GAAGGCGCGAAAGCGTTC (((..(((....)))))) | 30.9 |
| GATGACGAAAGTCGATC ((((((....))).))) | 45.2 |

The sequence identified as GAGAGGGGAAACCCTTTC ((.((((....)))).)) registered its Tm at 36.4

Documented Tm of GTTCTCGAAAGAGTAAC ((((((....))).))) : 34.9

---

As shown below, each of these sequences has a reported folding enthalpy value.
assay: folding enthalpy; higher = less favourable; fluorescence melt of hairpins on a sequencing array, two-state fit; conditions: sodium 0.088 M
Please state the figure in kcal/mol; there is no need to write the unit.

| seq_string | unit_descriptor | value |
| --- | --- | --- |
| GATCTCGTGGAGATC ((((((...)))))) | kcal/mol | -39 |
| GATCCGGTCACGGATC ((((((....)))))) | kcal/mol | -34.7 |

For this sequence ( GCTTCAACGAAAGTTAGC (((..(((....)))))) ), measured folding enthalpy is -18.7

Please fill in: folding enthalpy reported for GTCGCTACGAAAGTAGAC (((..(((....)))))) = -14.6

Query GGAATCGAAAGATATCC ((((((....))).))) yields folding enthalpy of -13.4

Notebook: GATCTTGGTGAAGATC ((((((....)))))) , folding enthalpy read as -27.2

Entry GGCTCCACGAAAGTGGCC (((..(((....)))))) , folding enthalpy reported as -11.8

Memo: GCACCGCGAAAGCTGCGC ((.(.((....)).).)) , reported folding enthalpy: -24.4

folding enthalpy measured on GATCCCGAAAGGGTATC ((((((....))).))) = -15.8

Consider GCGTGGGAACGC ((((....)))) . Its measured folding enthalpy is -20.4

Sample GTCGCCGAAAGGCAGGAC ((((((....)))..))) ; folding enthalpy observed: -13.1

Short answer for GCGGGAGGAAACCCCCAC (.(((.(....).))).) : folding enthalpy was -10.6

---

assay: folding enthalpy; higher = less favourable; fluorescence melt of hairpins on a sequencing array, two-state fit; conditions: sodium 0.088 M
The entries below come with measured folding enthalpy values attached.
// note: answer is a bare numeric in kcal/mol

# count of solved cases: 8
| seq_string | measure_name | value |
| --- | --- | --- |
| GATCCATGTATGGATC ((((((....)))))) | folding enthalpy | -42.6 |
| GCGAACCGAAAGGTCGC (((.(((....)))))) | folding enthalpy | -31.8 |
| GGATCCGAAAGGACATCC ((((((....)))..))) | folding enthalpy | -17.6 |
| GGCCTTTCGAAAGAAGCC (((..(((....)))))) | folding enthalpy | -29.9 |
| GGGTACGAAAGTAGTCCC ((((((....)))..))) | folding enthalpy | -20.8 |
| GTCCGCGGAAACGCGAAC ((.((((....)))).)) | folding enthalpy | -16.5 |
| GCTATCCGAAAGGAGAGC (((.(((....))).))) | folding enthalpy | -38.9 |
| GTTGGCGAAAGCCCGAAC ((((((....)))..))) | folding enthalpy | -9.07 |

Entry CTCTCGAAAGAGAG (((((....))))) — recorded folding enthalpy = -21.5

Entry GCTTGGCGAAAGCCGGGC ((..(((....)))..)) ; folding enthalpy = -20.6

Form: sequence = GCAGGTGGAAACGCTTGC (((.(.(....).).))) ; folding enthalpy = -23

---

assay: folding enthalpy; higher = less favourable; fluorescence melt of hairpins on a sequencing array, two-state fit; settings: sodium 0.088 M
Assign classes using reported folding enthalpy values and the ranges interval 1: < -30 kcal/mol; interval 2: ≥ -30 kcal/mol and < -20 kcal/mol; interval 3: ≥ -20 kcal/mol, please.

# example entries with known answers
| seq_string | class_label |
| --- | --- |
| GTTACTGGAAACAGTGAC ((.((((....)))).)) | interval 2 |
| GATCCCACGGGGATC ((((((...)))))) | interval 1 |

Please look at the following sequence next.
Hi there! Could you help me figure out the category for GATCGGCCTACCGATC ((((((....)))))) please? interval 1

---

assay: melting temperature; fluorescence melt of hairpins on a sequencing array, two-state fit, raised by 9.35 °C to match UV melts; conditions: sodium 0.088 M
Criterion: Tm strictly under 50 °C. Met: True. Not met: False.

| seq_string | class_label |
| --- | --- |
| GGTCACGAAAGTGCAACC ((((((....)))..))) | True |

Is it true that Tm reported for GATTGCGAAAGCAGTATC ((((((....)))..))) is less than 50 °C? True

Would you kindly verify if Tm of GCATCGCGAAAGCGCGGC ((..(((....)))..)) is strictly less than 50 °C? True

Below 50 °C on Tm? Entry GATCGGAGCCCCGATC ((((((....)))))) False

Confirm or reject: Tm of GCTTGACGAAAGTCTAGC (((.(((....))).))) lies strictly below 50 °C False

Lab note: confirm whether the reported Tm for this sequence is below 50 °C, equality not counting. sequence: GCGAAACGTCGC ((((....)))) True

hey, is Tm for GCGATGCGAAAGCGACGC (((..((....))..))) lower than 50 °C or not? False

Tm under 50 °C? Item: GGGATCGAAAGATGACCC ((((((....)))..))) True

Could you please tell me whether Tm recorded for GGAGACGAAAGTCGTTCC ((((((....)))..))) is less than 50 °C? True

API: query returns whether the sequence falls strictly under 50 °C in Tm. Query: GGAGTCGAAAGACAATCC ((((((....)))..))) True

Tm strictly < 50 °C for this sequence? GCTATCGAAAGATGCAGC ((((((....)))..))) True

Does the reported Tm of GCGGTAGGAAACTGCCGC ((((.((....)).)))) stay below 50 °C? False

Regarding GAAGCCGAAAGGCACTTC ((((((....)))..))) , kindly confirm whether its Tm is beneath 50 °C. True

Check if Tm falls below 50 °C for GTGTCTGGAAACAGATAC ((.((((....)))).)) . True

Threshold test, Tm < 50 °C: GATCGTATGCACGATC ((((((....)))))) False

---

test: melting temperature; fluorescence melt of hairpins on a sequencing array, two-state fit, raised by 9.35 °C to match UV melts; conditions: sodium 0.088 M
Below, each entry is listed alongside its reported Tm.
Give your result in °C as a bare value.

| seq_string | value |
| --- | --- |
| GCCGCGCGAAAGCGATGC ((..(((....)))..)) | 45.3 |

Entry under test: GATCCGCGGCCGGATC ((((((....)))))) . Its Tm was 56

---

experiment: melting temperature; fluorescence melt of hairpins on a sequencing array, two-state fit, raised by 9.35 °C to match UV melts; settings: sodium 0.088 M
measure_name: Tm (°C)
Give the value, in units of °C, as a plain number.

| seq_string | Tm (°C) |
| --- | --- |
| GCAGAAGGAAACTCCTGC ((((.((....)).)))) | 40.1 |

# Tm of GTGCGCGGAAACGCGTAC ((.((((....)))).)) = 65.5

Entry GCCAACGAAAGTTAAGGC ((((((....)))..))) ; Tm = 45.8

Just so you know, measured Tm for GTGTTGGGAAACCGATAC ((.(.((....)).).)) came out at 33.3

Tm for GAGACCGAAAGGTGCTC ((((((....))).))) is 46.9

Form field Tm, entry GGCGTGCCGAAAGGCGCC (((..(((....)))))) : 59.8

---

assay: melting temperature; fluorescence melt of hairpins on a sequencing array, two-state fit, raised by 9.35 °C to match UV melts; settings: sodium 0.088 M
measure_name: Tm (°C)
Please reply with the bare figure in °C and do not write the unit itself.

| seq_string | unit_descriptor | value |
| --- | --- | --- |
| GAAGGCGAAAGCCCTTTC ((((((....)))..))) | °C | 37.6 |
| GTCGACGAAAGTCCTGAC ((((((....)))..))) | °C | 31.6 |
| GCTCGTGGAAACATGAGC ((((.((....)).)))) | °C | 54.5 |
| GTGAAAGAAATTTCAC ((((((....)))))) | °C | 44.3 |
| GAGCCAGGAAACTAGCTC ((((.((....)).)))) | °C | 37.4 |
| GATCTTCAGCAAGATC ((((((....)))))) | °C | 38.9 |
| GACACGGGAAACCATGTC ((((.((....)).)))) | °C | 39.9 |
| GATCTCGTCGAGATC ((((((...)))))) | °C | 55.7 |
| GAACTGCGAAAGCAATTC (((.(((....))).))) | °C | 36.7 |
| GAGTTCGGAAACGAGCTC (((.(((....))).))) | °C | 51.7 |

Tm reading for GGCTGCGAAAGCATCGCC ((((((....)))..))) : 48.5

The sequence listed as GGCTCTGGAAACAGGGCC (((.(((....))).))) has a reported Tm of 58.1

Quick note, Tm for GTCCGCGAAAGCGCAGAC ((((((....)))..))) landed at 40.8
